biological target: Glycogen synthase kinase-3 beta (Homo sapiens); details: at 1 µM;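 further: reported values are mean percent inhibition of GSK3B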
Measure: inhibition (%)
Express the result in % but write the number alone.

What does the data say about its inhibition? Entry: COc1cc2ncn(-c3cc(OCc4cccs4)c(C(N)=O)s3)c2cc1OC
7.28

Param item: CS(=O)(=O)CCNCc1ccc(-c2ccc3ncnc(Nc4ccc(OCc5ccccc5)c(Br)c4)c3c2)o1
-1.69

Param item: CCN(CC)Cc1ccc(Nc2nccc(-c3cnn4ncccc34)n2)cc1
62.3

Param item: Nc1nccc(-c2c(-c3ccc(F)cc3)ncn2C2CCC(O)CC2)n1 (stereo not given)
14.1

Param item: Cc1ccc(C(=O)NC2CCC2)cc1-c1ccc(C(=O)NCC2CC2)cc1
3.43

Param item: C[C@@H](Oc1cc(-n2cnc3ccc(OC4CCN(C)CC4)cc32)sc1C(N)=O)c1ccccc1Cl
-0.12

Param item: O=C1Nc2ccccc2/C1=C/Nc1ccc(-n2cncn2)cc1
25.4

Param item: CCS(=O)(=O)c1ccc(OC)c(Nc2ncc(-c3cccc(-c4ccccc4F)c3)o2)c1
7.6

Param item: COc1cc(N2CCN(C(C)C)CC2)ccc1Nc1nc(Nc2ccc(F)cc2C(=O)NC[C@@H](O)CO)c2cc[nH]c2n1
-0.58

Param item: COc1cc(Nc2ncc3c(C)nc(-c4cccc(Oc5ccccc5)c4)n3n2)cc(OC)c1OC
0.75

----------
molecular target: ALK tyrosine kinase receptor (Homo sapiens); settings: at 1 µM;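 further: values are mean percent inhibition of ALK, screened as part of the GSK PKIS panel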
Measure: inhibition (%)
Express the result in % but write the number alone.

What does the data say about its inhibition? Entry: O=C1Nc2ccc(I)cc2C1=Cc1cc(Br)c(O)c(Br)c1
4.7

Param item: COc1ccc2ncn(-c3cc(O[C@H](C)c4ccccc4Cl)c(C(N)=O)s3)c2c1
0.59

Param item: CCC(=O)Nc1ccc(C)c(-c2ccc(C(=O)NCC3CC3)cc2)c1
2.14

Param item: Cc1ccc(C(=O)NC(C)C)cc1-c1ccc(C(=O)NCC2CC2)cc1
-3.45

Param item: Cc1ccc(NC(=O)c2ccoc2)cc1-c1ccc(C(=O)NCC2CC2)cc1
4.11

Param item: CNC(=O)c1cncc(/C=C/c2c(C)cccc2C)c1
-1.77

----------
molecular target: MAP kinase-activated protein kinase 3 (Homo sapiens) (UniProt Q16644); settings: at 0.1 µM
Sequence (Q16644 whole entry, looked up): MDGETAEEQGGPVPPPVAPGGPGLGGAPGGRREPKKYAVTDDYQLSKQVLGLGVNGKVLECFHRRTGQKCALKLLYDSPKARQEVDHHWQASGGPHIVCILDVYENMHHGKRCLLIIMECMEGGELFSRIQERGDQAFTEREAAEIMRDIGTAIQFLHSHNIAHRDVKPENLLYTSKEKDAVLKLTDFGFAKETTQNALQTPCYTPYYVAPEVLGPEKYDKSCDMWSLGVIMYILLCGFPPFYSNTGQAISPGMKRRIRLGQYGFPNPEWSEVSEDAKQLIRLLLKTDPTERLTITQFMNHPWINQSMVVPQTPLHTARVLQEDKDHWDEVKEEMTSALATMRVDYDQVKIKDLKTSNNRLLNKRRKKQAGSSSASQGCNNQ
Description: GSK_PKIS: MAPKAPK3 mean inhibition at 0.1 uM [Nanosyn]
Label Condition not met if inhibition falls below 6%; label Condition met in every other case.

hey, is inhibition for this one >= 6%? c1ccc(Oc2ccc(Nc3ncc(-c4ccccc4)o3)cc2)cc1
Condition not met

Param item: Fc1ccc(-c2ncn(CCCN3CCOCC3)c2-c2ccncc2)cc1
Condition not met

Param item: Fc1ccc(-c2nc3n(c2-c2ccncc2)CCS3)cc1
Condition met

Param item: O=C1Nc2ccccc2/C1=C/Nc1ccc(-n2cncn2)cc1
Condition not met

----------
Consider the following compounds; for each one, report its inhibition.
target: Dual specificity protein kinase CLK3 (Homo sapiens); conditions: at 1 µM;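 further: each value is the mean inhibition of CLK3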
Express the result in % but write the number alone.

What does the data say about its inhibition? Entry: Fc1ccc(-c2nc3n(c2-c2ccncc2)CCS3)cc1
-2.32

Param item: O=C(Nc1n[nH]c2cc(-c3cc(F)ccc3F)ccc12)C1CC1
1.26

Param item: CN(C)CCOc1ccc(-c2cc(-c3ccc4c(c3)CCC4=NO)c(-c3ccncc3)o2)cc1
1.91

Param item: Fc1ccc(-c2ncn(C3CCNCC3)c2-c2ccnc(Oc3ccc(F)c(F)c3)n2)cc1
-3.79

Param item: CCc1cccc(CC)c1/C=C/c1cncc(C(=O)NC)c1
1.66

Param item: CS(=O)(=O)CCNCc1cc(-c2cc3c(Nc4ccc(OCc5cccc(F)c5)c(Cl)c4)ncnc3s2)cs1
0.02

Param item: O=C(Nc1n[nH]c2nc(-c3ccc(O)cc3)c(Br)cc12)C1CC1
8.39

Param item: CCN(CC)Cc1ccc(Nc2nccc(-c3cnn4ncccc34)n2)cc1
5.2

Param item: Cc1nnc(-c2ccc(C)c(-c3ccc(C(=O)NCc4ccc(Cl)cc4)cc3)c2)o1
-1.79

Param item: CNC(=O)c1cncc(/C=C/c2c(C)cccc2C)c1
-2.04

Param item: NS(=O)(=O)c1ccc(N/N=C2\C(=O)Nc3ccc(-c4cnco4)cc32)cc1
1.68

Param item: CCS(=O)(=O)c1ccc(OC)c(Nc2ncc(-c3ccccc3Cl)o2)c1
8.78

----------
target: Angiopoietin-1 receptor (Homo sapiens) (UniProt Q02763); conditions: at 1 µM;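 further: reported value is the mean TIE2 inhibition from the GSK PKIS dataset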
Sequence (Q02763 whole entry): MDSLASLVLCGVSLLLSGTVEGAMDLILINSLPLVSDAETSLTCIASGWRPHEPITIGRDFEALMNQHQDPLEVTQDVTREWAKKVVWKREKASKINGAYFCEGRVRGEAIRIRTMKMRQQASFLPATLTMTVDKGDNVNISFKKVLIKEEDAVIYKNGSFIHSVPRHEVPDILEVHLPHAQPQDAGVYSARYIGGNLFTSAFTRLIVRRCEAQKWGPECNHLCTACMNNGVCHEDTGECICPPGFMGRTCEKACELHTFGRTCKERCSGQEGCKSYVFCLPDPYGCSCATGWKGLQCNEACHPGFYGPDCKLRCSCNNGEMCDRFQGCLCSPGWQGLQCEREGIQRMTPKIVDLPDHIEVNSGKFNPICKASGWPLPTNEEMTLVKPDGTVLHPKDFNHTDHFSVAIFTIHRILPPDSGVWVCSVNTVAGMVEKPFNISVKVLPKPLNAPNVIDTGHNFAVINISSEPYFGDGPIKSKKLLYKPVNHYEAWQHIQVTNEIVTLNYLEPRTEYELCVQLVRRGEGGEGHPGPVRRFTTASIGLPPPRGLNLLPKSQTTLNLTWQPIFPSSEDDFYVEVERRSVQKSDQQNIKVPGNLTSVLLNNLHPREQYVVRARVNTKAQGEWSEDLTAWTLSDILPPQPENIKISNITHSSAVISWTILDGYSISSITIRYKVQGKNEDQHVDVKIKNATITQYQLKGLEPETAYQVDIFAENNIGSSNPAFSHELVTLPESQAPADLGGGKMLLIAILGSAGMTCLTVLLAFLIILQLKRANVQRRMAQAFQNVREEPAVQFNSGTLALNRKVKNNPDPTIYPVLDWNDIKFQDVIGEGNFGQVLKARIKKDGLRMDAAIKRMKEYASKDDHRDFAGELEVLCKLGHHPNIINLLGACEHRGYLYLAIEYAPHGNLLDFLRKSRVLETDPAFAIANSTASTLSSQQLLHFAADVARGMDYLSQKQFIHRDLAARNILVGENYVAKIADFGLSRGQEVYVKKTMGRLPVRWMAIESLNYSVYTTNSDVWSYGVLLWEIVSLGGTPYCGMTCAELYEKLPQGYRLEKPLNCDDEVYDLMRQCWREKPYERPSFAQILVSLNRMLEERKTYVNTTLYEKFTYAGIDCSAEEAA
Label Condition not met if inhibition falls below 5%; label Condition met in every other case.

hey, is inhibition for this one >= 5%? Clc1ccc(CNc2nccc(-c3cnn4ncccc34)n2)cc1
Condition not met

Param item: Fc1ccc(-c2ncn(C3CCNCC3)c2-c2ccnc(Oc3ccc(F)c(F)c3)n2)cc1
Condition not met

Param item: O=C1Nc2ccccc2/C1=C/Nc1ccc(-n2cncn2)cc1
Condition not met

Param item: CN(C)c1ccc2c(c1)/C(=C/Nc1ccc(S(N)(=O)=O)cc1)C(=O)N2
Condition met

Param item: NC(=O)c1cc(-c2ccc(F)cc2)cc(-c2ccncc2)c1N
Condition not met

Param item: CCC(=O)Nc1ccc(C)c(-c2ccc(C(=O)NCC3CC3)cc2)c1
Condition met

Param item: CS(=O)(=O)CCNCc1ccc(-c2ccc3ncnc(Nc4ccc(OCc5ccccc5)c(Br)c4)c3c2)o1
Condition not met

Param item: NS(=O)(=O)c1ccc(N/N=C2\C(=O)Nc3ccc(-c4cnco4)cc32)cc1
Condition not met

Param item: NCc1ccc(-n2c(-c3nonc3N)nc3cnccc32)cc1
Condition not met

Param item: O=C(Nc1ccc(Oc2ccc3[nH]c(NC(=O)c4ccccc4)nc3c2)cc1)Nc1cc(C(F)(F)F)ccc1F
Condition met

----------
Consider the following compounds; for each one, report its inhibition.
tested on: Proto-oncogene tyrosine-protein kinase receptor Ret (Homo sapiens), P07949 [V804L]; details: at 1 µM
Sequence (P07949 whole entry V804L): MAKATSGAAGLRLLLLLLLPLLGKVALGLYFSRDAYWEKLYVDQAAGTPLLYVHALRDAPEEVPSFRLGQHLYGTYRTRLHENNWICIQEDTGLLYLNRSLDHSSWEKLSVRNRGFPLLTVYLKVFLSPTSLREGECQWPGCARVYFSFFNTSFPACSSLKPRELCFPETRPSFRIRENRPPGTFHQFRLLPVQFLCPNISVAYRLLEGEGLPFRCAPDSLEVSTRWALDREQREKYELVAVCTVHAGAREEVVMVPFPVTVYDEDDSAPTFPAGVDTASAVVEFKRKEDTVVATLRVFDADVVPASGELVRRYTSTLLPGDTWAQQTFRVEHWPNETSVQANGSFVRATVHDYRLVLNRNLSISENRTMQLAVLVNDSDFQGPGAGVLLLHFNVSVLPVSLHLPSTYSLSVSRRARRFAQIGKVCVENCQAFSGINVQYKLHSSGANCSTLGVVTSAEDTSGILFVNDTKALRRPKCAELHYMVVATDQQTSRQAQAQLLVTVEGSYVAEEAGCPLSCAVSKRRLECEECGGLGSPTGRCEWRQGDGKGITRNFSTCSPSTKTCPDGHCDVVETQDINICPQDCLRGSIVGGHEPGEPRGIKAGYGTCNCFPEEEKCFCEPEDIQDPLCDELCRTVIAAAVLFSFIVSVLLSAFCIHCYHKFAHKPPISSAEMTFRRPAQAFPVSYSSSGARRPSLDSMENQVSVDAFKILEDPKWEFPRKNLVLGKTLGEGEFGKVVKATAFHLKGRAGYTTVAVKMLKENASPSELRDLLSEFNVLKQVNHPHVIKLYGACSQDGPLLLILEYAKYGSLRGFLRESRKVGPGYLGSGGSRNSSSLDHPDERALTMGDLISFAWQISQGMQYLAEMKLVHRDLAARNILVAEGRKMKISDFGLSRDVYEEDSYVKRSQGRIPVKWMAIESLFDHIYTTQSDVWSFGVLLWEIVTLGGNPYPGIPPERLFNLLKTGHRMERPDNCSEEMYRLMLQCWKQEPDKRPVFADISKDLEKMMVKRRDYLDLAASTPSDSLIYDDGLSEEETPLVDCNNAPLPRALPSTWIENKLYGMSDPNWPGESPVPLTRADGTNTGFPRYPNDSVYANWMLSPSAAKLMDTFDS
Express the result in % but write the number alone.

Item O=C(Nc1n[nH]c2nc(-c3ccco3)ccc12)C1CC1 with Proto-oncogene tyrosine-protein kinase receptor Ret (Homo sapiens), P07949 [V804L] - inhibition?
8.22

Param item: CN(C)CCOc1ccc(-c2cc(-c3ccc4c(c3)CCC4=NO)c(-c3ccncc3)o2)cc1
1.37

Param item: COc1cccc(-n2cnc3c(N/N=C/c4ccncc4)ncnc32)c1
12.5

Param item: Cc1nnc(-c2ccc(C)c(-c3ccc(C(=O)NCc4ccc(Cl)cc4)cc3)c2)o1
2.91

Param item: COc1cc(Nc2ncc3c(C)nc(-c4cccc(C(F)(F)F)c4)n3n2)cc(OC)c1OC
57.4

----------
Consider the following molecules; for each one, report its inhibition.
target: Serine/threonine-protein kinase DCLK2 (Homo sapiens) (UniProt Q8N568); details: at 0.1 µM;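 further: reported value is the mean percent inhibition of DCAMKL2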
Sequence (Q8N568 whole entry): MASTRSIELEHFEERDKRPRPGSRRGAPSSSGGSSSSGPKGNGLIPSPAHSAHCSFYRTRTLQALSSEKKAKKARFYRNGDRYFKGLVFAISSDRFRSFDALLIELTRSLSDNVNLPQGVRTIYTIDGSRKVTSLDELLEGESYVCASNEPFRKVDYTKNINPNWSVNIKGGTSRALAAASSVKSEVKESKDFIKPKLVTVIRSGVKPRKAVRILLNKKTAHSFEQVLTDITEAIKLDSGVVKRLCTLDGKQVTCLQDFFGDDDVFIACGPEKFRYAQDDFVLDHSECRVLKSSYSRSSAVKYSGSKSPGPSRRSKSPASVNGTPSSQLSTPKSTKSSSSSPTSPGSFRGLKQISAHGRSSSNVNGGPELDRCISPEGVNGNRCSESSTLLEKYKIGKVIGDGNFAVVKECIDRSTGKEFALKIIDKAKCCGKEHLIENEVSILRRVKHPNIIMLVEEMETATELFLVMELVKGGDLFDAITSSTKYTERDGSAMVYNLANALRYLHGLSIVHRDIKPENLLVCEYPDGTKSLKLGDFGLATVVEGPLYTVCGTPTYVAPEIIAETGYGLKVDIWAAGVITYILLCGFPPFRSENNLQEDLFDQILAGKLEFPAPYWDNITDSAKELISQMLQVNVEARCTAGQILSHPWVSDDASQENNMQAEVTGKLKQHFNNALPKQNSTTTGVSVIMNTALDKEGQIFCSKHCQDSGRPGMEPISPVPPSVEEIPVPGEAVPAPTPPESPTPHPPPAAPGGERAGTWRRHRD
Express the result in % but write the number alone.

Item NC(=O)c1cc(-c2ccncc2)cc(-c2ccccc2)c1N with Serine/threonine-protein kinase DCLK2 (Homo sapiens) (UniProt Q8N568) - inhibition?
1.2

Param item: COc1ccc2cc(-c3c(-c4ccncc4)nc(-c4ccc([S+](C)[O-])cc4C)n3C)ccc2c1 (stereo not drawn)
-1.12

Param item: NCc1ccc(-n2c(-c3nonc3N)nc3cnccc32)cc1
-0.49

----------
molecular target: Rho-associated protein kinase 1 (Homo sapiens); conditions: at 0.1 µM;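 further: values are mean percent inhibition of ROCK1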
Consider the following compounds; for each one, report its inhibition.
Express the result in % but write the number alone.

What does the data say about its inhibition? Entry: CN(C)CCCNc1nccc(-c2c(-c3ccc(F)cc3)nn3cc(C(F)(F)F)ccc23)n1
0.76

Param item: O=C(Nc1ccc(Oc2ccc3[nH]c(NC(=O)c4ccccc4)nc3c2)cc1)Nc1cc(C(F)(F)F)ccc1F
0.24

Param item: NS(=O)(=O)c1ccc(Nc2cc(-c3ccc(O)c(F)c3)n[nH]2)cc1
-0.2

Param item: COc1cc(Nc2ncc3c(C)nc(-c4cccc(C(F)(F)F)c4)n3n2)cc(OC)c1OC
-0.86

Param item: COc1cc2ncn(-c3cc(OCCc4ccccc4)c(C(N)=O)s3)c2cc1OC
0.26

Param item: CS(=O)(=O)CCNCc1cc(-c2cc3c(Nc4ccc(OCc5cccc(F)c5)c(Cl)c4)ncnc3s2)cs1
3.25

Param item: Clc1ccc(CNc2nccc(-c3cnn4ncccc34)n2)cc1
0.21

Param item: O=C(Nc1n[nH]c2nc(-c3ccc(O)cc3)c(Br)cc12)C1CC1
0.72

Param item: CN1CCN(CCCNc2nc3ccc(Oc4ccc(NC(=O)Nc5cc(C(F)(F)F)ccc5F)cc4)cc3[nH]2)CC1
1.94

Param item: O=C1Nc2ccccc2/C1=C/Nc1ccc(-n2cncn2)cc1
1.71

Param item: N#Cc1ccc(Oc2nccc(-c3c(-c4ccc(F)cc4)ncn3C3CCNCC3)n2)cc1
2.51

----------
target: Tyrosine-protein kinase Mer (Homo sapiens) (UniProt Q12866); details: at 1 µM;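 further: values are mean inhibition of human MER kinase, from the GSK PKIS profiling panel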
Sequence (Q12866 whole entry): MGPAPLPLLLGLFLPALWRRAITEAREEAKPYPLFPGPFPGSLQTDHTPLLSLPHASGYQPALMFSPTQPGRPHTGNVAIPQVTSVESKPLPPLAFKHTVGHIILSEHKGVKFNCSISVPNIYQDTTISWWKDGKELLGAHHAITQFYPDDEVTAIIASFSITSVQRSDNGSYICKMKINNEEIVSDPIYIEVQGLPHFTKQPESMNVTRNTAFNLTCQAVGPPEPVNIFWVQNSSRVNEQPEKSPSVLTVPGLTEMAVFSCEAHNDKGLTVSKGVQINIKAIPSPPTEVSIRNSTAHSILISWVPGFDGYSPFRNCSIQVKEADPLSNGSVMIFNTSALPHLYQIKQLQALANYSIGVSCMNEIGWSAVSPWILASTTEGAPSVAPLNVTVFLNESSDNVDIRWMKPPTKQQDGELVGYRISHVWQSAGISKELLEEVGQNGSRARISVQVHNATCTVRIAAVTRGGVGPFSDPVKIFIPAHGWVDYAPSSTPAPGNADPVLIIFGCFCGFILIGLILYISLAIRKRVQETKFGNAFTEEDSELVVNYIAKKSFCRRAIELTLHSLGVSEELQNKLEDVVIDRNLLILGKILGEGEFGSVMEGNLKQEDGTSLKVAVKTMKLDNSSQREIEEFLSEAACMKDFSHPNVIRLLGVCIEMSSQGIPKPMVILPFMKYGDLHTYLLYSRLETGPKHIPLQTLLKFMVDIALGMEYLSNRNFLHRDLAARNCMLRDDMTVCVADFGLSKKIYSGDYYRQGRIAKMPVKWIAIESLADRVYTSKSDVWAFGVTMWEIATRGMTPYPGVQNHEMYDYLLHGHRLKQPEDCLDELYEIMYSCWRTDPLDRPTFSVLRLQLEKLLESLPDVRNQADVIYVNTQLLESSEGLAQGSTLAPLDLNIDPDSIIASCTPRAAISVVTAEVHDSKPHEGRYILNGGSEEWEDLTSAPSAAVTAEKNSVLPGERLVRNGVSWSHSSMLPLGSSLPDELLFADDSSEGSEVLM
Label Not met if inhibition falls below 4%; label Met in every other case.

hey, is inhibition for this one >= 4%? CN(C)CCCNc1nccc(-c2c(-c3ccc(F)cc3)nn3cc(C(F)(F)F)ccc23)n1
Met

Param item: Fc1ccc(-c2nc3n(c2-c2ccncc2)CCS3)cc1
Not met

Param item: COc1cc2ncn(-c3cc(OCc4cccs4)c(C(N)=O)s3)c2cc1OC
Met

Param item: FC(F)(F)c1cccc(Nc2nccc(-c3cnn4nc(-c5ccccc5)ccc34)n2)c1
Not met

Param item: Clc1ccc(CNc2nccc(-c3cnn4ncccc34)n2)cc1
Not met

Param item: COc1cc(Nc2ncc3c(C)nc(-c4cccc(C(F)(F)F)c4)n3n2)cc(OC)c1OC
Met
